system: L1210 leukemia ip in BDF1 mice, survival T/C; experiment: NCI In Vivo Anticancer Drug Screen. Data for tumor model L1210 Leukemia (intraperitoneal) in B6D2F1 (BDF1) mice; conditions: endpoint: mean survival time; dose: 100.0 mg/kg/injection; schedule: Q04DX003 (ip); vehicle: saline
Inconclusive results and toxic doses are left out. Rule as the data show it: active = T/C of 150% or more; inactive = T/C below 125%.
Bench note: report the call from true (1) (active), false (0) (inactive)

Some entries whose results are on file:
Call for entry Cc1cc(C)c(S(=O)(=O)O)cc1C :
false (0)

Call for entry O=C(C[n+]1ccc(-c2ccccc2)cc1)c1ccccc1 :
false (0)

New cases:
Call for entry COc1ccc2c(=O)cc(-c3ccccc3)[nH]c2c1 :
false (0)

Call for entry CSCCNC(=O)NS(=O)(=O)c1ccc(Cl)cc1 :
false (0)

Call for entry COc1ccc(CN(CCO)S(C)(=O)=O)cc1 :
false (0)

* * *

system: L1210 leukemia ip in BDF1 mice, survival T/C; assay: NCI In Vivo Anticancer Drug Screen. Data for tumor model L1210 Leukemia (intraperitoneal) in B6D2F1 (BDF1) mice; details: endpoint: mean survival time; dose: 25.0 mg/kg/injection; schedule: Q01DX009 (ip); vehicle: saline with Tween-80; higher = longer survival
Toxic doses and inconclusive results are not listed.
Property: T/C; scope: individual compounds

Known T/C results, listed for orientation:
Consider c1ccc2cc3c(cc2c1)Nc1ccncc1N3 . Its measured T/C is 103 % of control

Consider CC(=O)C(CN(C)C)c1ccccc1 (stereo not given) . Its measured T/C is 98 % of control

Consider c1ccc(N2CCOCC2)cc1 . Its measured T/C is 100 % of control

Consider CCCCCCCCCCCCNC . Its measured T/C is 93 % of control

Consider O=C1C=CCCCC1 . Its measured T/C is 95 % of control

Consider O=[N+]([O-])/C=C\c1cc2c3c(c1)CCCN3CCC2 . Its measured T/C is 102 % of control

Consider CN(C)/C=N\c1c(C#N)c(CC#N)nn1-c1ccccc1 . Its measured T/C is 98 % of control

Consider CC(=O)N1CCOC12CCN(Cc1ccccc1)CC2 . Its measured T/C is 92 % of control

Consider O=c1c2cccc3cccc(c32)c2nc3ccccc3n12 . Its measured T/C is 100 % of control

# evaluate next
Consider O=C(NCCCc1ccc(S(=O)(=O)F)cc1)Oc1ccc([N+](=O)[O-])cc1 . Its measured T/C is 102 % of control

* * *

system: L1210 leukemia ip in BDF1 mice, survival T/C; assay: NCI In Vivo Anticancer Drug Screen. Data for tumor model L1210 Leukemia (intraperitoneal) in B6D2F1 (BDF1) mice; details: endpoint: mean survival time; dose: 200.0 mg/kg/injection; schedule: Q04DX003 (ip); vehicle: Klucel (hydroxypropylcellulose) (HPC); higher = longer survival
Inconclusive results and toxic doses are left out.
Property: T/C; scope: individual compounds

Known T/C results, listed for orientation:
Consider O=C(O)CSC(SCC(=O)O)c1ccccc1 . Its measured T/C is 100 % of control

Consider Cc1nc2ccc(NC(=O)c3ccccc3)cc2o1 . Its measured T/C is 105 % of control

Consider ClC1OC(Cl)(Cl)C(Cl)(Cl)OC1(Cl)Cl (stereo unspecified) . Its measured T/C is 94 % of control

New cases:
Consider CS(=O)(=O)c1ccc(/C=C2/C=Cc3ccccc32)cc1 . Its measured T/C is 96 % of control

Consider O=C(O)c1cc2ccccc2s1 . Its measured T/C is 94 % of control

Consider S=c1[nH]nc2ccccn12 . Its measured T/C is 94 % of control
